# SYSTEM_NAME: Yap3 (UniProt P38749)
# Sequence: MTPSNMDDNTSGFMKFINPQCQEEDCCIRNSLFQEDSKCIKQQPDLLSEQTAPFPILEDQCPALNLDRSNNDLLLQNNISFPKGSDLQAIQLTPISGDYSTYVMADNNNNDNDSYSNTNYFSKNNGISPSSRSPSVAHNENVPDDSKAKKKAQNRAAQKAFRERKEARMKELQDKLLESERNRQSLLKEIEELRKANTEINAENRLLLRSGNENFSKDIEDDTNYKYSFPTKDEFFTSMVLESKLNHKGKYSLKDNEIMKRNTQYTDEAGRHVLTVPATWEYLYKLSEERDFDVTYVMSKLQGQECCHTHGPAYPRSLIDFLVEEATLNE
# PROTOCOL_DESCRIPTION: PBM E-score (8-mer binding enrichment) (E-score (-0.5 to 0.5)); higher = stronger / more preferred TF binding
# RECORDED_CONDITIONS: protein concentration: 100 nM; construct: GST-full length
Whole data set: some 33,000 sequences, median “E-score (-0.5 to 0.5)” near -0.0034, cut for the highest 2% near 0.25. For the sample, the highest values were picked, then their nearest neighbours and some sequences at random.
Measured PBM E-score values are reported for all entries that follow.

GTAAATAA: 0.267
AACCATCC: -0.0788
GTACTAAA: 0.21
GAACTAAA: 0.0567

Exercise: Recorded PBM E-score for AGACTTCC , please?
Solution: -0.161

Exercise: Moving on to ATAAAAAT
Solution: 0.199

* * *

# SYSTEM_NAME: Yap3 (UniProt P38749)
# Sequence: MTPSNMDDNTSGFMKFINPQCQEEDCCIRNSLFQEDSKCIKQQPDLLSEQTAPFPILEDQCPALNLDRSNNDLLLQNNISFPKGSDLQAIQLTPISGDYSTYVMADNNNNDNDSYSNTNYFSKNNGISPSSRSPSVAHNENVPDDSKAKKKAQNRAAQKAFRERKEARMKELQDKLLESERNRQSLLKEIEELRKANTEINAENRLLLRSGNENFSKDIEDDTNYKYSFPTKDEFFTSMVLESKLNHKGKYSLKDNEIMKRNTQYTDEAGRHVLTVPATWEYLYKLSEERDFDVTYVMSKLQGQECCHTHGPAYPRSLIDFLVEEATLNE
# PROTOCOL_DESCRIPTION: PBM E-score (8-mer binding enrichment) (E-score (-0.5 to 0.5)); higher = stronger / more preferred TF binding
# RECORDED_CONDITIONS: protein concentration: 100 nM; construct: GST-full length
Over roughly 33,000 sequences, “E-score (-0.5 to 0.5)” has its median near -0.0034; the highest 2% begin near 0.25. The full list was thinned out, with the highest values kept by preference.
QUANTITY_NAME: PBM E-score
Answer with a number only.

AATAAATA: 0.315

Exercise: Recorded PBM E-score for CCTTAGCC , please?
Solution: -0.0133

Exercise: Moving on to GCGAAGGA
Solution: -0.201

Exercise: Moving on to TCTGGCCA
Solution: -0.0631

Exercise: Moving on to TATCAAAA
Solution: 0.23

Exercise: Moving on to GCATTCAA
Solution: 0.0939

* * *

Measured PBM E-score values are reported for all entries that follow.
# SYSTEM_NAME: Yap3 (UniProt P38749)
# Sequence: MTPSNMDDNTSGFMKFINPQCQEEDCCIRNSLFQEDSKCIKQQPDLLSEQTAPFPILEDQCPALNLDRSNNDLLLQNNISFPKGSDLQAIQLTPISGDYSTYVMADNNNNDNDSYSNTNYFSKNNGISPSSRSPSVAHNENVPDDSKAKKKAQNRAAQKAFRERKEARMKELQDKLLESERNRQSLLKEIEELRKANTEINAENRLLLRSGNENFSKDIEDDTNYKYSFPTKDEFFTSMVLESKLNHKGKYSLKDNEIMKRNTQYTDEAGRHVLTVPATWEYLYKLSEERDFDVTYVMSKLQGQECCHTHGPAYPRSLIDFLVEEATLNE
# PROTOCOL_DESCRIPTION: PBM E-score (8-mer binding enrichment) (E-score (-0.5 to 0.5)); higher = stronger / more preferred TF binding
# RECORDED_CONDITIONS: protein concentration: 100 nM; construct: GST-full length
In all, about 33,000 sequences were measured (“E-score (-0.5 to 0.5)”: median about -0.0034, highest 2% from about 0.25 on). The sample as a whole holds a higher share of the highest values than the screen did.
Answer with a number only.

AAGTCCGC: -0.104
ATTATTCG: 0.274
AGGCAGAA: -0.0515

Exercise: Recorded PBM E-score for GATATACA , please?
Solution: 0.187

Exercise: Moving on to TACCCAAA
Solution: 0.0436

Exercise: Moving on to AATTATCA
Solution: 0.288

Exercise: Moving on to ATATGATA
Solution: 0.264

Exercise: Moving on to ATAAAATA
Solution: 0.298

Exercise: Moving on to CCTCGTAG
Solution: -0.00114

Exercise: Moving on to AGTTGTGG
Solution: 0.271

Exercise: Moving on to CGCTAATA
Solution: 0.0177

Exercise: Moving on to AAGCTTTG
Solution: 0.0373

Cited source: the supplement of paper PMC3334620
